A set of compounds tested on PIM1 (Homo sapiens (Human), UniProt P11309), with measured Ki:
quantity.name: Ki (nM)

(P) Cn1ncc(NC(=O)c2nc(-c3cncc(C#N)c3)sc2N)c1N1CC[C@@H](N)[C@H](F)CC1
(Q) Cn1ncc(NC(=O)c2nc(-c3ncccc3F)sc2N)c1N1CC[C@@H](N)[C@H](F)CC1
Pick one: P or Q . Which has the bigger Ki number? Write the label of whichever entry you select.
P
(P: 35.4 nM, Q: 0.186 nM)

###

target: UniProt P11309
quantity.name: Ki (nM)

* Cn1ncc(NC(=O)c2nc(-c3ccccc3F)ccc2N)c1N1CCC(N)C(F)CC1 (single isomer, unassigned) [Example 245] | 0.173

(I) COC1CCN(c2c(NC(=O)c3nc(-c4cc(C)ccc4F)sc3N)cnn2C)CCC1N (stereo not drawn) [Example 325]
(II) Cn1ncc(NC(=O)c2nc(-c3c(F)cccc3F)sc2N)c1N1CC[C@@H]2OC(=O)N[C@@H]2CC1 [Example 486]
Pick one: I or II . Which has the bigger Ki number? Write the label of whichever entry you select.
I

###

biological target: PIM1 (Homo sapiens (Human), UniProt P11309)
Sequence (P11309 whole entry): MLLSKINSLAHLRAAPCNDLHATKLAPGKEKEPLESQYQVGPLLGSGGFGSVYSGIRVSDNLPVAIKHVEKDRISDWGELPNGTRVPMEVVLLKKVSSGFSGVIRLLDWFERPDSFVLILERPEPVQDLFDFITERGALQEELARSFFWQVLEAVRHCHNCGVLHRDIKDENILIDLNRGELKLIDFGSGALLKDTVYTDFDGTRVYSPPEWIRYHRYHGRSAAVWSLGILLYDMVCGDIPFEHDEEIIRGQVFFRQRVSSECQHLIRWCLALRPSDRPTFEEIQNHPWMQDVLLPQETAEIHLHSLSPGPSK
pKi: −log10 of the molar value.
quantity.name: pKi

(P) CN[C@H]1CCCN(c2c(NC(=O)c3nc(-c4cc(C)ccc4F)sc3N)cnn2CC(F)F)CC1
(Q) Cn1ncc(NC(=O)c2nc(-c3cc(F)ccc3F)sc2N)c1N1CC[C@@H](F)[C@@H](N)CC1
Which of these two has the smaller recorded pKi: P or Q ? Write the label of whichever entry you select.
Q

(A) Cn1ncc(NC(=O)c2nc(-c3cccc(C#N)n3)sc2N)c1N1CC[C@@H](N)[C@H](F)CC1
(B) Nc1sc(-c2c(F)cccc2F)nc1C(=O)Nc1cnn(C2CC2)c1N1CCC(N)C(F)CC1 (single isomer, unassigned) [Example 332]
(C) COC1(C)CC(N)CCN(c2c(NC(=O)c3nc(-c4ccncc4F)sc3N)cnn2C)C1 (stereo not drawn) [Example 476]
(D) Cn1ncc(NC(=O)c2nc(-c3cccc(O)n3)sc2N)c1N1CCC[C@H](N)CC1
(E) Cn1ncc(NC(=O)c2nc(-c3cc(F)ccc3F)sc2N)c1N1CC[C@@H](N)CC(F)(F)C1
# rank by pKi, ascending (min first) Give the labels in the order specified.
D, A, B, C, E

###

A set of compounds tested on UniProt P11309, with measured pKi:
pKi: −log10 of the molar value.
quantity.name: pKi

• Cn1ncc(NC(=O)c2nc(-c3ccccc3F)cnc2N)c1N1CCC(N)C(F)CC1 (single isomer, unassigned) = 9.91
• Cn1ncc(NC(=O)c2nc(-c3ccnc(F)c3)sc2N)c1N1CCC[C@H](N)CC1 = 8.67
• Cn1ncc(NC(=O)c2nc(-c3c(F)cncc3F)sc2N)c1N1CC[C@H](N)CC(F)(F)C1 (single isomer, unassigned) = 10.64

(1) Nc1sc(-c2cc(F)ccc2F)nc1C(=O)Nc1cnn(CC(F)F)c1N1CCC[C@@H](N)CC1
(2) Cn1ncc(NC(=O)c2nc(-c3c(F)cncc3F)sc2N)c1N1CC[C@H](N)[C@@H](F)CC1 [Example 471]
(3) COC1(C)CC(N)CCN(c2c(NC(=O)c3nc(-c4c(F)cncc4F)sc3N)cnn2C)C1 (centres unmarked)
Could you please sort these 3 entries by pKi from high to low? Give the labels in the order specified.
3, 1, 2
(3: 11.05, 1: 9.92, 2: 9.62)

(a) CCn1ncc(NC(=O)c2nc(-c3c(F)cccc3F)sc2N)c1N1CCC(N)C(OC)CC1 (single isomer, unassigned) [Example 390]
(b) Cc1ccc(F)c(-c2nc(C(=O)Nc3cnn(C4CC4)c3N3CCC(N)C(F)CC3)c(N)s2)c1 (centres unmarked) [Example 330]
(c) Cn1ncc(NC(=O)c2nc(-c3ccncc3F)sc2N)c1N1CC[C@H](N)CC(F)(F)C1 (single isomer, unassigned)
(d) Cc1cnc(C)c(-c2nc(C(=O)Nc3cnn(C)c3N3CC[C@@H](N)[C@H](F)CC3)c(N)s2)c1
# rank by pKi, ascending (min first) Give the labels in the order specified.
d, a, b, c
